Please respond with reported pEC50 for every item in the list.
Target: human PD-1 (NM_005018.2) over-expressed on cells (human, UniProt Q15116 25-288)
Sequence (Q15116 25-288): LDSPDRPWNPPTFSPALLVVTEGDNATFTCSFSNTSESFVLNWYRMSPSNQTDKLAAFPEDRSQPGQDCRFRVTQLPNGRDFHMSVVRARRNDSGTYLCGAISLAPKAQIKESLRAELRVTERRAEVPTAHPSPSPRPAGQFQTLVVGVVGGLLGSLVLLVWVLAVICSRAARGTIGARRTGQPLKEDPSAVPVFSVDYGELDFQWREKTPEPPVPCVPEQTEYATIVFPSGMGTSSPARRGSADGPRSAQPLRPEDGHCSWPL
Experiment: cell-based or functional assay
One number for each entry, as −log10 of the molar value.

Req: Identify measured pEC50 corresponding to PD1-45D6(A/5B5) (antibody, V domains shown, scFv-phage in the screening ELISA; whole IgG in the other assays; also called 45D6-5B5; PD1 45D6 5B5) VH: QVQLVESGGGVVQPGRSLRLSCAASGFTFRTYAMHWVRQAPGKGLEWVAVISYDGNDKYYADSVKGRFTISRDNSKNTLYLQMNSLRAEDTAVYYCVPTTFEYWGQGTLVTVSS VL: DIVMTQTPLSLPVMPGEAASISCRSSQSLLDSEDGNTYLDWYLQKPGQSPQLLIYTLSHRASGVPDRFSGSGSGTDFTLKISRVEADDVGIYYCMQRVEFPFTFGQGTKVEIK
Resp: 9.04

Req: Identify measured pEC50 corresponding to PD1-45D6 (antibody, V domains shown, scFv-phage in the screening ELISA; whole IgG in the other assays) VH: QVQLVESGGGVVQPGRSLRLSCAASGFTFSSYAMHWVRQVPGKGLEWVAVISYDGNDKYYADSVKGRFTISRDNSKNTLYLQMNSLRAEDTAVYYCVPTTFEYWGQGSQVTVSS VL: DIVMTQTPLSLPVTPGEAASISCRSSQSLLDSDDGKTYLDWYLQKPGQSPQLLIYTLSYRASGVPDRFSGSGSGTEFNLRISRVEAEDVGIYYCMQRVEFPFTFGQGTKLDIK
Resp: 8.73

Req: Identify measured pEC50 corresponding to PD1-49A2(A/1B2) (antibody, V domains shown, scFv-phage in the screening ELISA; whole IgG in the other assays; also called 49A2-1B2; PD1 49A2 1B2) VH: QVQLVESGGGVVQPGRSLRLSCAASGFTFLRYAMHWVRQAPGKGLEWVAVISYDGQDKYYADSVKGRFTISRDNSKNTLYLQMNSLRAEDTAVYYCTTTTFDSWGRGTLVTVSS VL: DIVMTQTPLSLPVTPGEPASISCRSSQSLLDSDDGNTYLDWYLQKPGQSPQLLIYTLSHRASGVPDRFSGSGSGTEFNLRISRVEAEDVGIYYCMQRVEFPFTFGQGTKLEIK
Resp: 8.69

---
Req: Identify measured pEC50 corresponding to PD1-49A2(A/1H8) (antibody, V domains shown, scFv-phage in the screening ELISA; whole IgG in the other assays; also called 49A2-1H8; PD1 49A2 1H8) VH: QVQLVESGGGVVQPGRSLRLSCAASGFTFKTYAMHWVRQAPGKGLEWVAVISYDGQHKYYADSVKGRFTISRDNSKNTLYLQMNSLRAEDTAVYYCTTTTFDSWGQGTLVTVSS VL: DIVMTQTPLSLPVTPGEPASISCRSSQSLLDRDGGHTYVDWYLQKPGQSPRLLIYTLSHRALGVPDRFSGSGSGTDFTLKISRVEADDVGLYYCMQRIEFPFTFGQGTKVEIK
Resp: 8.84
